Molecular target: Mitogen-activated protein kinase kinase kinase 5 (Homo sapiens)
Sequence (Q99683 whole entry): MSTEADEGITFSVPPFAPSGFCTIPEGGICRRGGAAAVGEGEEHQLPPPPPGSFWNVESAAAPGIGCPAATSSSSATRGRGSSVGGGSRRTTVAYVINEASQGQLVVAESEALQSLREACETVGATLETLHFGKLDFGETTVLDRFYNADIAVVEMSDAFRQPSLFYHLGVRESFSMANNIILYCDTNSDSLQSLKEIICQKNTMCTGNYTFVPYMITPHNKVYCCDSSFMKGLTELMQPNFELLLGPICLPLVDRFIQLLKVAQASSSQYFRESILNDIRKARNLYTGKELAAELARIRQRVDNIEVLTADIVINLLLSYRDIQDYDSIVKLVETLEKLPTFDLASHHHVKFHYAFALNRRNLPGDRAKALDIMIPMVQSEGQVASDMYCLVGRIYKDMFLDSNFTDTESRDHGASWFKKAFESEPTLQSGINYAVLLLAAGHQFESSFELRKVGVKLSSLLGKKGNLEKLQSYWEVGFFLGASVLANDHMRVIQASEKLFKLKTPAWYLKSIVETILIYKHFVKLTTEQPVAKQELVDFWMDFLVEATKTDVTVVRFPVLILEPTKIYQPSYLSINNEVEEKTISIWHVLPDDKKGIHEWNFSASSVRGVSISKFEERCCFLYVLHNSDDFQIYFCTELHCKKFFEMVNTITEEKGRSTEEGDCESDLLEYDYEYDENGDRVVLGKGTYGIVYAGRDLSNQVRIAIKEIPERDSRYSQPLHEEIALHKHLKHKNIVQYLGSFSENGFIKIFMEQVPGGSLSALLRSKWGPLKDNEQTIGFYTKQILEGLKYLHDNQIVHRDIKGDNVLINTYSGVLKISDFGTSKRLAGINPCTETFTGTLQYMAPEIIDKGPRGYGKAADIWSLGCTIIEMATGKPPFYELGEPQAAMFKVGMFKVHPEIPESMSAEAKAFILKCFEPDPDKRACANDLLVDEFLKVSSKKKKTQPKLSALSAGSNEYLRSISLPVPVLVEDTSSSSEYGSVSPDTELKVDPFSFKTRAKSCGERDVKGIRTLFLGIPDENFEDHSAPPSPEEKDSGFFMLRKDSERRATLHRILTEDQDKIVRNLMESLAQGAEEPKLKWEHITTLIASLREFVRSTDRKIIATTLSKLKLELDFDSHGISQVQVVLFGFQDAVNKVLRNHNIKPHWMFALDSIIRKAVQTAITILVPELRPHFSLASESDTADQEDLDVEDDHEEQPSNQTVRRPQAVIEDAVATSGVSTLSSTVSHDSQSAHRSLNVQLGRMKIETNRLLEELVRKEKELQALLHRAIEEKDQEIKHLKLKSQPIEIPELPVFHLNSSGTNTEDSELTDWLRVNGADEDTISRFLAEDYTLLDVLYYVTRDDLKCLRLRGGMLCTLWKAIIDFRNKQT
Experiment: HTRF KinEASE Assay : ASK1 was purchased from Thermofisher (Catalogue #PV4011), ATP was purchased from Sigma (Catalogue #A7699), HTRF® KinEASE Assay System was obtained from Cisbio (Bedford, Mass.). ½ Area plate was purchased from Perkin Elmer (Catalogue ##6005560). HTRF® KinEASE-STK is a generic method for measuring serine/threonine kinase activities using a time-resolved fluorescence resonance energy transfer (TR-FRET) immunoassay. The IC50 value for each compound was determined in the presence of compound (various concentration from 0 to 10 μM) and a fixed amount of ATP and peptide substrates. The test compound, 1 μM STK3 peptide substrate, and […] are incubated with kinase reaction buffer containing 50 mM HEPES Ph 7.5, 0.01% BRIJ-35, 10 mM MgCl2, and 1 mM EGTA for 30 minutes. 100 μM ATP is added to start kinase reaction and incubated for 3 hours. The STK3-antibody labeled with Eu3+-Cryptate and 125 nM streptavidin-XL665 are mixed in a single addition with stop reagents provided by the Cisbio kit used to stop the kinase reaction. Fluorescence is detected using an Envision Multilabeled 2014 reader from PerkinElmer. The Fluorescence is measured at 615 nm (Cryptate) and 665 nm (XL665) and a ratio of 665 nm/615 nm is calculated for each well. The resulting TR-FRET is proportional to the phosphorylation level. Staurosporine was used as the positive control. IC50 was determined by Xlfit 5.3.
pIC50: −log10 of the molar value.
ASSAY METRIC: pIC50

So what does the record say about pIC50 for `CCNC(=O)N1CCc2cc(OC)c(C(=O)Nc3cccc(-c4nnnn4[C@H](C)CO)n3)cc2C1` ?
8.00 to 8.90

Fill blank: measured pIC50 of the molecule `COc1cc2c(cc1C(=O)Nc1cccc(-c3nnnn3[C@@H]3CCC[C@@H]3O)n1)CN(C(=O)OCC(F)(F)F)CC2` is ____.
8.00 to 8.90

Could you share which pIC50 value was measured for `C[C@H](CO)n1cnnc1-c1cccc(NC(=O)c2cc3c(cn2)CCN(C(=O)N2CCCC2)C3)n1` ?
8.00 to 8.90

I have this molecule here, `COc1cc2c(cc1C(=O)Nc1cccc(-c3nncn3C(C)C)n1)CN(C(=O)N1CCCC1)CC2` , and I need its recorded pIC50.
> 8.90

Sample `COc1cc2c(cc1C(=O)Nc1cccc(-c3nnnn3C(C)C)n1)CN(S(=O)(=O)CCC(F)(F)F)CC2` — what was its pIC50?
8.00 to 8.90

Any idea what pIC50 was measured for `C[C@H](CO)n1cnnc1-c1cccc(NC(=O)c2cc3c(cc2F)CCN(C(=O)N2CCCC2)C3)n1` ?
> 8.90

Suppose we examine the molecule `COc1cc2c(cc1C(=O)Nc1cccc(-c3nnnn3[C@H](C)CO)n1)CN(C(=O)OCC(F)(F)F)CC2` ; what pIC50 value has been reported?
8.00 to 8.90

Field request: pIC50 | item: `COc1cc2c(cc1C(=O)Nc1cccc(-c3nnnn3C(C)C)n1)CN(C(=O)OC(C)C)CC2`
> 8.90

---

Target: Mitogen-activated protein kinase kinase kinase 5 (Homo sapiens)
Test: HTRF KinEASE Assay : ASK1 was purchased from Thermofisher (Catalogue #PV4011), ATP was purchased from Sigma (Catalogue #A7699), HTRF® KinEASE Assay System was obtained from Cisbio (Bedford, Mass.). ½ Area plate was purchased from Perkin Elmer (Catalogue ##6005560). HTRF® KinEASE-STK is a generic method for measuring serine/threonine kinase activities using a time-resolved fluorescence resonance energy transfer (TR-FRET) immunoassay. The IC50 value for each compound was determined in the presence of compound (various concentration from 0 to 10 μM) and a fixed amount of ATP and peptide substrates. The test compound, 1 μM STK3 peptide substrate, and […] are incubated with kinase reaction buffer containing 50 mM HEPES Ph 7.5, 0.01% BRIJ-35, 10 mM MgCl2, and 1 mM EGTA for 30 minutes. 100 μM ATP is added to start kinase reaction and incubated for 3 hours. The STK3-antibody labeled with Eu3+-Cryptate and 125 nM streptavidin-XL665 are mixed in a single addition with stop reagents provided by the Cisbio kit used to stop the kinase reaction. Fluorescence is detected using an Envision Multilabeled 2014 reader from PerkinElmer. The Fluorescence is measured at 615 nm (Cryptate) and 665 nm (XL665) and a ratio of 665 nm/615 nm is calculated for each well. The resulting TR-FRET is proportional to the phosphorylation level. Staurosporine was used as the positive control. IC50 was determined by Xlfit 5.3.
In this section, each of the compounds is paired with its reported IC50.

Reference set, count: 10
[[record]]
molecule = "COc1cc2c(cc1C(=O)Nc1cccc(-c3nncn3[C@H](C)CO)n1)CN(S(=O)(=O)CCC(F)(F)F)CC2"
obs_value = "< 1.25 nM"

[[record]]
molecule = "CC(C)COC(=O)N1CCc2cc(F)c(C(=O)Nc3cccc(-c4nncn4[C@H](C)CO)n3)cc2C1"
obs_value = "1.25 to 10 nM"

[[record]]
molecule = "COc1cc2c(cc1C(=O)Nc1cccc(-c3nncn3C(C)C)n1)CN(S(=O)(=O)C1CC1)CC2"
obs_value = "1.25 to 10 nM"

[[record]]
molecule = "CC(C)N1CCc2cc(F)c(C(=O)Nc3cccc(-c4nncn4[C@H](C)CO)n3)cc2C1"
obs_value = "< 1.25 nM"

[[record]]
molecule = "COc1cc2c(cc1C(=O)Nc1cccc(-c3nnnn3[C@H](C)CO)n1)CN(C(=O)c1cn(C3CC3)cn1)CC2"
obs_value = "1.25 to 10 nM"

[[record]]
molecule = "COc1cc2c(cc1C(=O)Nc1cccc(-c3nnnn3C(C)C)n1)CN(C(=O)N1CCCC1)CC2"
obs_value = "< 1.25 nM"

[[record]]
molecule = "COc1cc2c(cc1C(=O)Nc1cccc(-c3nncn3[C@H](C)CO)n1)CN(C(=O)N1CCCC1)CC2"
obs_value = "< 1.25 nM"

[[record]]
molecule = "CCOC(=O)N1CCc2cnc(C(=O)Nc3cccc(-c4nncn4[C@H](C)CO)n3)cc2C1"
obs_value = "< 1.25 nM"

[[record]]
molecule = "CCOC(=O)N1CCc2cc(F)c(C(=O)Nc3cccc(-c4nncn4[C@H](C)CO)n3)cc2C1"
obs_value = "< 1.25 nM"

[[record]]
molecule = "CCNC(=O)N1CCc2cnc(C(=O)Nc3cccc(-c4nncn4[C@H](C)CO)n3)cc2C1"
obs_value = "1.25 to 10 nM"


I have this compound here, `COc1cc2c(cc1C(=O)Nc1cccc(-c3nncn3C(C)C)n1)CN(C(=O)c1ccc(F)cc1)CC2` , and I need its recorded IC50.
< 1.25 nM

Given `C[C@H](CO)n1cnnc1-c1cccc(NC(=O)c2cc3c(cc2F)CCN(C(=O)NC2CCCC2)C3)n1` , state its recorded IC50.
< 1.25 nM

Suppose we examine the compound `CC(C)CN1CCc2cnc(C(=O)Nc3cccc(-c4nncn4[C@H](C)CO)n3)cc2C1` ; what IC50 value has been reported?
1.25 to 10 nM

Name the reported IC50 value associated with the compound `COc1cc2c(cc1C(=O)Nc1cccc(-c3nnnn3C(C)C)n1)CN(C(C)C)CC2`
1.25 to 10 nM

# get_value(readout='IC50', item= `COc1cc2c(cc1C(=O)Nc1cccc(-c3nncn3[C@H](C)CO)n1)CN(C(=O)OC(C)(C)C)CC2` )
< 1.25 nM

I am curious: what IC50 value has been reported for `COc1cc2c(cc1C(=O)Nc1cccc(-c3nncn3C(C)C)n1)CN(S(=O)(=O)CCC(F)(F)F)CC2` ?
1.25 to 10 nM

Given the compound `CC(C)n1cnnc1-c1cccc(NC(=O)c2cc3c(cn2)CCN(Cc2ccccn2)C3)n1` , what is its reported IC50?
< 1.25 nM

Where do the numbers come from? From ChEMBL document CHEMBL5729134.
